- test_name: Example 7 pharmacokinetics assay for PKPD study (plasma, tumor, liver)
- Assay type: in vivo, BALB/c nude mice
- condition_set: mouse, plasma, po; 100 mg/kg, p.o., single dose; 12 h; read-out: Concentration in Plasma (mean ± SEM)
test_readout: concentration at 12 h

- compound: "CC(C)(C)c1nc(-c2cccc(NS(=O)(=O)c3c(F)cccc3F)c2F)c(-c2ccnc(N)n2)s1 [Dabrafenib, dabrafenib, reference compound]"
  reading: "336 ng/mL"

* * *

- test_name: Pharmacokinetics in female BALB/c nude mice bearing A375 xenografts, 1 day dosing (PK and PD study): plasma, tumor and brain concentrations, AUC
- Format: in vivo
- condition_set: mouse, plasma, po, 5 mg/kg, 5 mg/kg p.o. BID × 1 day; post 1st dose; 1 h; read-out: Mean Concentration in Plasma ± SEM
test_readout: concentration at 1 h (ng/mL)

- molecule: "CCN(C)S(=O)(=O)Nc1ccc(F)c(Oc2ccc3ncn(C4CC5(CCN(C6CC7(C6)CN(c6cc8c(cc6F)c(N6CCC(=O)NC6=O)nn8C)C7)CC5)C4)c(=O)c3c2)c1C#N (stereo not shown)"
  reading: 4860

* * *

- tgt: BRAF V600E (Homo sapiens, UniProt P15056+Q96SW2, V600E)
- Construct: knock-in of the HiBiT tag to the endogenous BRAF V600E locus; host or cells: A375.10 (A375 clonal line, CRISPR HiBiT knock-in at the endogenous BRAF V600E locus)
- Sequence (P15056 whole entry V600E): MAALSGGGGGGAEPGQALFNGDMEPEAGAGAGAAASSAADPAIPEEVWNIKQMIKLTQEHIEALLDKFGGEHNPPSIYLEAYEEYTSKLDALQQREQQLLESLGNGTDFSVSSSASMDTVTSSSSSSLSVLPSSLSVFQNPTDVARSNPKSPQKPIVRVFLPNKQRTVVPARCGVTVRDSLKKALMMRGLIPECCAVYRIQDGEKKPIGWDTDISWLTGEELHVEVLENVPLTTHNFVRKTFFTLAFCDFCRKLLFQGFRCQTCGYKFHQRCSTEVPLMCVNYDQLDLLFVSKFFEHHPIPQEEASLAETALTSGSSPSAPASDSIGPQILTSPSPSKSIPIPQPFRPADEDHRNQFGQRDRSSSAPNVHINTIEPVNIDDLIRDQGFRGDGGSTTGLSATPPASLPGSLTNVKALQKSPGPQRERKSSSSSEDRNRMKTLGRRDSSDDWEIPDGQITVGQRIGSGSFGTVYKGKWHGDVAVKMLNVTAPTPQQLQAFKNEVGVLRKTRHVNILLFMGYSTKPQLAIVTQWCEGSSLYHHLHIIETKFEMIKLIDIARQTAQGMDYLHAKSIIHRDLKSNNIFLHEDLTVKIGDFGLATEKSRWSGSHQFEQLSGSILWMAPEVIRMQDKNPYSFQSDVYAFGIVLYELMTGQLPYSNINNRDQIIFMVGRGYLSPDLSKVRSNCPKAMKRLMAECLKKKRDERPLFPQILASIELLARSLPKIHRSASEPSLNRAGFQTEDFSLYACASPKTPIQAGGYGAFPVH
- Sequence (Q96SW2 whole entry): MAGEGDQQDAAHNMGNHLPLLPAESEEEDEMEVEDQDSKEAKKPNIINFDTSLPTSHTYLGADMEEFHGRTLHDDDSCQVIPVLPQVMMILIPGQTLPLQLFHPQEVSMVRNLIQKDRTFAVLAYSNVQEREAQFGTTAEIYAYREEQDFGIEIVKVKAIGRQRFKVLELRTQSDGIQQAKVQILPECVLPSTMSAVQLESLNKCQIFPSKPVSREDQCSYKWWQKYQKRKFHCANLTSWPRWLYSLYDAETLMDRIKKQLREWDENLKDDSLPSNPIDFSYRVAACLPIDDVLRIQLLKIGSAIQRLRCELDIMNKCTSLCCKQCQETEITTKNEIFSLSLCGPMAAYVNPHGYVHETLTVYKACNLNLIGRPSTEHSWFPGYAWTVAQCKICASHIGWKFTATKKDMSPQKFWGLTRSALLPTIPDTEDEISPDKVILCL
- Sequence (Q16531 whole entry partner): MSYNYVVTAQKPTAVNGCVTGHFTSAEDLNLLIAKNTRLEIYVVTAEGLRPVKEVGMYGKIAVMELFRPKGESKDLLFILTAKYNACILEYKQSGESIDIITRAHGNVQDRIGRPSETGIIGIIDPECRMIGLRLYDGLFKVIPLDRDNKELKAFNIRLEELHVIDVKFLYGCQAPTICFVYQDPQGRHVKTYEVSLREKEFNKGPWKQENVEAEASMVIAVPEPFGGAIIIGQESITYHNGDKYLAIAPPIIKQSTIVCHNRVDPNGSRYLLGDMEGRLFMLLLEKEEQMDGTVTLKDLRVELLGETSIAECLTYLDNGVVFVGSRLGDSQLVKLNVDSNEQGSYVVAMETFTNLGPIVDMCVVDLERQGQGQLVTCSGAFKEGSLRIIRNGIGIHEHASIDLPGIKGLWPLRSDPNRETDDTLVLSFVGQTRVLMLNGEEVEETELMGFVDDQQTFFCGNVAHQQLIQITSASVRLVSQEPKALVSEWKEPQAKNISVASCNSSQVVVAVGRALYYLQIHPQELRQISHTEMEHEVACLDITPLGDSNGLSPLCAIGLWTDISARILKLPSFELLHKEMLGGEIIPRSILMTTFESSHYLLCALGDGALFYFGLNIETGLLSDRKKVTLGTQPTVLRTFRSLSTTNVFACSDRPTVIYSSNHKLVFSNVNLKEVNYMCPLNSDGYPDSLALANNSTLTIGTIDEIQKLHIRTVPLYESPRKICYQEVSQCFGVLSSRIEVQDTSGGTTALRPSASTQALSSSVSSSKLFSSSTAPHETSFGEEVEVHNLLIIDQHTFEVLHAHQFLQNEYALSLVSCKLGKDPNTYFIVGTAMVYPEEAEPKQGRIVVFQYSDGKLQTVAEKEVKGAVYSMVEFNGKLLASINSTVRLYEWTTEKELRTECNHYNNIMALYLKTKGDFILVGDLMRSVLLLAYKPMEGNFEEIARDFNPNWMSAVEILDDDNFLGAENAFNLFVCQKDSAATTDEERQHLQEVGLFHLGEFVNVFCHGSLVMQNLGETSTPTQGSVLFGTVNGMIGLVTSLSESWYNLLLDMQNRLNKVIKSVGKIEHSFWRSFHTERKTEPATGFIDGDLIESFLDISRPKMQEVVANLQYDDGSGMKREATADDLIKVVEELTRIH
- test_name: BRAF V600E HiBiT Degradation Assay
- Assay type: cell-based
- condition_set: A375.10 cells, BRAF V600E, 2 hours; residual protein remaining
test_readout: HiBiT-Degradation A375.10 BRAF 2 hours Emax

- compound: "CC(C)S(=O)(=O)Nc1ccc(F)c(Oc2ccc3ncc(C4CC5(CCN(C6CCC(c7cc8c(cc7F)c(N7CCC(=O)NC7=O)nn8C)CC6)CC5)C4)nc3c2)c1C#N (single isomer, unassigned) [Compound 249]"
  reading: "*** (<=50%)"
- compound: "CCN(C)S(=O)(=O)Nc1ccc(F)c(Oc2ccc3ncn(C4CCC(N5CC6(CCN(c7cc8c(cc7F)c(N7CCC(=O)NC7=O)nn8C)CC6)C5)CC4)c(=O)c3c2)c1C#N (single isomer, unassigned) [Compound 222]"
  reading: "*** (<=50%)"
- compound: "CCN(C)S(=O)(=O)Nc1ccc(F)c(Oc2ccc3ncn(C4CCC5(CC4)CCN(C4CCC(c6ccc(NC7CCC(=O)NC7=O)cc6F)CC4)CC5)c(=O)c3c2)c1C#N (single isomer, unassigned) [Compound 11]"
  reading: "*** (<=50%)"
- compound: "CCN(C)S(=O)(=O)Nc1ccc(F)c(Oc2ccc3ncn([C@H]4COC5(CCN(C6CCC(c7ccc(NC8CCC(=O)NC8=O)cc7F)CC6)CC5)C4)c(=O)c3c2F)c1C#N (single isomer, unassigned) [Compound 51]"
  reading: "** (<90% and >50%)"
- compound: "CCN(C)S(=O)(=O)Nc1ccc(F)c(Oc2ccc3ncn([C@@H]4CO[C@]5(CCN(C6CCC(c7cc8c(cc7F)c(N7CCC(=O)NC7=O)nn8C)CC6)C5)C4)c(=O)c3c2)c1C#N (single isomer, unassigned) [Compound 291]"
  reading: "** (<90% and >50%)"
- compound: "CCN(C)S(=O)(=O)Nc1ccc(F)c(C(=O)c2ccc3ncn(C4CC5(CCN(C6CCC(c7cc8c(cc7F)c(N7CCC(=O)NC7=O)nn8C)CC6)CC5)C4)c(=O)c3c2)c1F (single isomer, unassigned) [Compound 183]"
  reading: "*** (<=50%)"
- compound: "CCN(C)S(=O)(=O)Nc1ccc(F)c(Oc2ccc3ncc(OCC4(F)CCN(C5CCC(c6cc7c(cc6F)c(N6CCC(=O)NC6=O)nn7C)CC5)CC4)nc3c2)c1C#N (single isomer, unassigned) [Compound 229]"
  reading: "*** (<=50%)"
- compound: "CO[C@H]1CCN(S(=O)(=O)Nc2ccc(F)c(Oc3ccc4ncc(C5CC6(CCN(C7CCC(c8cc9c(cc8F)c(N8CCC(=O)NC8=O)nn9C)CC7)CC6)C5)nc4c3)c2C#N)C1 (single isomer, unassigned) [Compound 276]"
  reading: "** (<90% and >50%)"
- compound: "CCN(C)S(=O)(=O)Nc1ccc(F)c(C(=O)c2ccc3ncn(C4CC5(CCN(C6CCC(c7ccc(NC8CCC(=O)NC8=O)cc7F)CC6)CC5)C4)c(=O)c3c2)c1F (single isomer, unassigned) [Compound 200]"
  reading: "*** (<=50%)"
